These entries and their values trace back to PubChem BioAssay (NCI).

- Tested on: RXF-631 renal
- Measurement Protocol: NCI tumour cell line growth inhibition, 48 h
Recorded TGI by entry
Measurement Name: TGI

>>> endpoint_result("COc1ccc(/C=C\\c2cc(OC)c(OC)c(OC)c2)cc1")
"> 100 µM"
>>> endpoint_result("COc1ccccc1NC(=O)C1=C(C)NC(C)=C(C(=O)Nc2ccccc2OC)C1c1ccco1")
"> 92.6 µM"
>>> endpoint_result("CCOC(=O)C1=C(OC(OCC)C(CC)[Se]c2ccccc2)CCC1 (stereo unspecified)")
"32.9 µM"
>>> endpoint_result("C=C1C2=C(CCCC2)C(=O)OC12CCCCC2")
"> 100 µM"
>>> endpoint_result("CCN(c1ccccc1)[C@H]1C(=O)N(c2ccc([N+](=O)[O-])cc2)[C@H]1c1ccc(OC)cc1")
"> 100 µM"
>>> endpoint_result("CCOC(=O)CCC(NC(=O)c1ccc(NC(OC)c2nc3cc(C(F)(F)F)ccc3nc2-c2ccccc2)cc1)C(=O)OCC (stereo unspecified)")
"29.2 µM"
